- Test system: T1, human LAP-TGFB1 Fc fusion (human)
- T1 construct: also called human LAP-TGFβ1-Fc; human LAP-TGFβ-Fc isoform 1
- T1 sequence (chain, as listed by the source limits assumed): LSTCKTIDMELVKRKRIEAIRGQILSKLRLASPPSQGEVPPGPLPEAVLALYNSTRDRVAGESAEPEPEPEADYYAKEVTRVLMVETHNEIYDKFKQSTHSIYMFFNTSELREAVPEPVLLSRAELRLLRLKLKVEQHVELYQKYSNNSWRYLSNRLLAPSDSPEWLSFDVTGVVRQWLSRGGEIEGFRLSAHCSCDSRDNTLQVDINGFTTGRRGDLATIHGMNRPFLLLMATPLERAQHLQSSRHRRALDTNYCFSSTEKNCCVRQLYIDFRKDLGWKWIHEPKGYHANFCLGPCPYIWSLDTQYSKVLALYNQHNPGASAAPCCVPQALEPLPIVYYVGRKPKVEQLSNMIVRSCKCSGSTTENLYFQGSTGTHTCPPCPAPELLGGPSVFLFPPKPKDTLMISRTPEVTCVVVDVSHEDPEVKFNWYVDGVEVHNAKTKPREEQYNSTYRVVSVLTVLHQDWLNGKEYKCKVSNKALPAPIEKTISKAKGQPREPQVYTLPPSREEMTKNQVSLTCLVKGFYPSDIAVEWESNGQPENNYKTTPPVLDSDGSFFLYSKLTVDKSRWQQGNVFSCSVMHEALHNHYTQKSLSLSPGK
- Protocol notes: SPR
Measure name: Fold change in KD from pH 7.4 to pH 6

Consider the binder shown here: 67BLH (Fab, V domains shown, also called 19BLM Fab) VH: EVQLVQSGAEVKKPGASVKVSCKASGYTFTSYDMHWVRQAPGQGLEWMGRIDPQSGGIKYAQKFQGRATLTVDTSTSTAYMELSRLRSDDTAVYYCARYDHGGYFDVWGQGTLVTVSS VL: DIQMTQSPSSLSASVGDRVTITCRASQDIYNYLNWYQQKPGKAVKLLIYYTSYLETGVPSRFSGSGSGTDYTLTISSLQPEDFATYFCQQGDTLPWTFGQGTKLEIK What is its recorded Fold change in KD from pH 7.4 to pH 6?
1.7 fold

Cited source for all entries: patent US20230272056A1
